This collection of values is drawn from patent US20230212549A1.

Target: FAP-expressing human WI-38 fibroblasts (Homo sapiens, UniProt Q12884)
Sequence (Q12884 whole entry): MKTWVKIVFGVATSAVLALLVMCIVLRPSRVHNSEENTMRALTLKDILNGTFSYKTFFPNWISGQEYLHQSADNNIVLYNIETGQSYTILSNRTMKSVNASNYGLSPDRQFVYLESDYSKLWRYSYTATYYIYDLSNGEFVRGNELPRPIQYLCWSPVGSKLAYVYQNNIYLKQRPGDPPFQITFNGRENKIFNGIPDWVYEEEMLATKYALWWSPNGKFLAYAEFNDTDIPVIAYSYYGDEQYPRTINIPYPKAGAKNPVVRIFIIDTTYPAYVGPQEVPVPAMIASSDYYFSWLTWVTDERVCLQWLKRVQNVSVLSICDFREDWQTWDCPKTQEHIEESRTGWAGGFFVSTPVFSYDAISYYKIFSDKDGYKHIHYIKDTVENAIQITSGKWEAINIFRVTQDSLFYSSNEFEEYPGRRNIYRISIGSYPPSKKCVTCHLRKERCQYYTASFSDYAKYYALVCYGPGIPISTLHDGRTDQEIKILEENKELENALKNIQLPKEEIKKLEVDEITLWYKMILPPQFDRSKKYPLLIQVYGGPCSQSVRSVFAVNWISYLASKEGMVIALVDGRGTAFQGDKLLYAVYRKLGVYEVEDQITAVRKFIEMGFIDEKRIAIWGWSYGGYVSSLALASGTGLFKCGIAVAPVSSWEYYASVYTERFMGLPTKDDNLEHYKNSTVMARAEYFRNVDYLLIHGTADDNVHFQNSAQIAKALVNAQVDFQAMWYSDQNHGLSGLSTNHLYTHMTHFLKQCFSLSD
Numbered stars: 1 amine (or outer) side, 2 acyl side, 3 side chain; on linkers, the order of the positions; unused ones are H or OH. Bridge positions count the residues as written; N and C are the ends. Square brackets hold non-standard residues; d marks the D form. Peptide text beside a SMILES is read from it. * marks the point of attachment. ξ: configuration not given here. X17 = NC(=O)[C@H](CCCCNC(=O)CN1CCN(CC(=O)O)CCN(CC(=O)O)CCN(CC(=O)O)CC1)NC(=O)CCC(=O)NCCCOCCOCCOCCCN*; X13 = O=C(O)CN1CCN(CC(=O)O)CCN(CC(=O)N2CCN(Cc3cc(C[*:1])cc(C[*:2])c3)CC2)CCN(CC(=O)O)CC1; Pyridine(3,5-bisCH2) = c1ncc(C[*:2])cc1C[*:1]; Met(O2) = CS(=O)(=O)CC[C@H](N)C(=O)O; mXylylene = c1cc(C[*:1])cc(C[*:2])c1; PEG6 = NCCOCCOCCOCCOCCOCCOCCC(=O)O; Pen = CC(C)(S)[C@H](N)C(=O)O; Nle = CCCC[C@H](N)C(=O)O; X2 = NCCNCC(CNCCN)C(=O)*; Hexanoyl = CCCCCC(=O)*; ξC = NC(CS)C(=O)O
Assay Readout: IC50

Compound | System Name | Measured Value
C[C@@H](O)[C@@H]1NC(=O)[C@@H]2CCCN2C(=O)[C@@H]2CCCN2C(=O)[C@@H](NC(=O)Cc2ccncc2)CSCc2cccc(c2)CSC[C@@H](C(N)=O)NC(=O)[C@H](Cc2ccccc2)NC(=O)[C@H](CCC(N)=O)NC1=O [3BP-3762] | FAP-expressing human WI-38 fibroblasts (Homo sapiens, UniProt Q12884) | > 1000 nM
CCCCCC(=O)N[C@H]1CSCc2cc(cc(CN3CCN(C(=O)CN4CCN(CC(=O)O)CCN(CC(=O)O)CCN(CC(=O)O)CC4)CC3)c2)CSC[C@@H](C(=O)N[C@@H](CC(=O)O)C(N)=O)NC(=O)[C@H](Cc2ccccc2)NC(=O)[C@H](C)NC(=O)[C@H](C)NC(=O)[C@@H]2CCCN2C(=O)[C@@H]2CCCN2C1=O [3BP-3746] (Hexanoyl-CPPAAFCD-NH2; linker 1-7 via X13) | FAP-expressing human WI-38 fibroblasts (Homo sapiens, UniProt Q12884) | > 1000 nM
CCCC[C@H](NC(=O)CCC(=O)NCCCOCCOCCOCCCNC(=O)CCC(C(=O)O)N1CCN(CC(=O)O)CCN(CC(=O)O)CC1)C(=O)N[C@H]1CSCc2cccc(c2)CSCC(C(=O)O)NC(=O)[C@H](Cc2ccccc2)NC(=O)[C@H](CCC(N)=O)NC(=O)[C@H]([C@@H](C)O)NC(=O)[C@@H]2CCCN2C(=O)[C@@H]2CCCN2C1=O (stereo partly drawn) [3BP-4714] | FAP-expressing human WI-38 fibroblasts (Homo sapiens, UniProt Q12884) | 10 to 79.4 nM
CCCCCC(=O)N[C@H]1CSCc2cccc(c2)CSC(C)(C)[C@@H](C(N)=O)NC(=O)[C@H](Cc2ccccc2)NC(=O)[C@H](CCC(=O)O)NC(=O)[C@H]([C@@H](C)O)NC(=O)[C@@H]2CCCN2C(=O)[C@@H]2CCCN2C1=O [3BP-3351] (Hexanoyl-CPPTEF[Pen]-NH2; linker 1-7 via mXylylene) | FAP-expressing human WI-38 fibroblasts (Homo sapiens, UniProt Q12884) | > 1000 nM
CCCCCC(=O)N[C@H]1CSCc2cccc(c2)CSC[C@@H](C(N)=O)NC(=O)[C@H](Cc2ccccc2)NC(=O)[C@H](CCS(C)(=O)=O)NC(=O)[C@H]([C@@H](C)O)NC(=O)[C@@H]2CCCN2C(=O)[C@@H]2CCCN2C1=O [3BP-3356] (Hexanoyl-CPPT[Met(O2)]FC-NH2; linker 1-7 via mXylylene) | FAP-expressing human WI-38 fibroblasts (Homo sapiens, UniProt Q12884) | > 1000 nM
CCCCOC(=O)N[C@H]1CSCc2cc(CSCCNC(=O)CN3CCN(CC(=O)O)CCN(CC(=O)O)CCN(CC(=O)O)CC3)cc(c2)CSC[C@@H](C(=O)O)NC(=O)[C@H](Cc2ccccc2)NC(=O)[C@H](CCC(N)=O)NC(=O)[C@H]([C@@H](C)O)NC(=O)[C@@H]2CCCN2C(=O)[C@@H]2CCCN2C1=O [3BP-3941] | FAP-expressing human WI-38 fibroblasts (Homo sapiens, UniProt Q12884) | < 10 nM
CCCC[C@H](NC(=O)CCC(=O)NCCCOCCOCCOCCCNC(=O)CN1CCN(C(=O)C(CNCCN)CNCCN)CC1)C(=O)N[C@H]1CSCc2cccc(c2)CSC[C@@H](C(=O)NCCC(=O)O)NC(=O)[C@H](Cc2ccccc2)NC(=O)[C@H](CCC(N)=O)NC(=O)[C@H]([C@@H](C)O)NC(=O)[C@@H]2CCCN2C(=O)[C@@H]2CCCN2C1=O [3BP-4960] | FAP-expressing human WI-38 fibroblasts (Homo sapiens, UniProt Q12884) | < 10 nM
CCCCNC(=O)N[C@H]1CSCc2cccc(c2)CSC[C@@H](C(=O)N[C@@H](CCCCNC(=O)C(CNCCN)CNCCN)CC(=O)O)NC(=O)[C@H](Cc2ccccc2)NC(=O)[C@H](CCC(N)=O)NC(=O)[C@H]([C@@H](C)O)NC(=O)[C@@H]2CCCN2C(=O)[C@@H]2CCCN2C1=O [3BP-4589] | FAP-expressing human WI-38 fibroblasts (Homo sapiens, UniProt Q12884) | < 10 nM
CCCC[C@H](NC(=O)CCC(=O)NCCCOCCOCCOCCCNC(=O)C(CNCCN)CNCCN)C(=O)N[C@H]1CSCc2cncc(c2)CSCC(C(=O)O)NC(=O)[C@H](Cc2ccccc2)NC(=O)[C@H](CCC(N)=O)NC(=O)[C@H]([C@@H](C)O)NC(=O)[C@@H]2CCCN2C(=O)[C@@H]2CCCN2C1=O (stereo partly drawn) [3BP-4549] | FAP-expressing human WI-38 fibroblasts (Homo sapiens, UniProt Q12884) | 10 to 79.4 nM
CCCC[C@H](NC(=O)CCOCCOCCOCCOCCOCCOCCNC(=O)C(CNCCN)CNCCN)C(=O)N[C@H]1CSCc2cncc(c2)CSCC(C(=O)O)NC(=O)[C@H](Cc2ccccc2)NC(=O)[C@H](CCC(=O)O)NC(=O)[C@H]([C@@H](C)O)NC(=O)[C@@H]2CCCN2C(=O)[C@@H]2CCCN2C1=O (stereo partly drawn) [3BP-4773] ({X2-PEG6}-[Nle]CPPTEF[ξC]-OH; linker 2-8 via Pyridine(3,5-bisCH2)) | FAP-expressing human WI-38 fibroblasts (Homo sapiens, UniProt Q12884) | 10 to 79.4 nM
CCCCCC(=O)N[C@H]1CSCc2cccc(c2)CSC[C@@H](C(=O)N[C@@H](CC(=O)O)C(=O)NCCCOCCOCCOCCCNC(=O)CCC(=O)N[C@@H](CCCCNC(=O)CN2CCN(CC(=O)O)CCN(CC(=O)O)CCN(CC(=O)O)CC2)C(N)=O)NC(=O)[C@H](Cc2ccccc2)NC(=O)[C@H](CCC(N)=O)NC(=O)[C@H]([C@@H](C)O)NC(=O)[C@@H]2CCCN2C(=O)[C@@H]2CCCN2C1=O [3BP-3395] (Hexanoyl-CPPTQFCD-X17; linker 1-7 via mXylylene) | FAP-expressing human WI-38 fibroblasts (Homo sapiens, UniProt Q12884) | < 10 nM
CCCCCC(=O)N[C@H]1CSCc2cc(CSCCNC(=O)COCCOCCNC(=O)CCC(C(=O)O)N3CCN(CC(=O)O)CCN(CC(=O)O)CC3)cc(c2)CSC[C@@H](C(=O)O)NC(=O)[C@H](Cc2ccccc2)NC(=O)[C@H](CCC(N)=O)NC(=O)[C@H]([C@@H](C)O)NC(=O)[C@@H]2CCCN2C(=O)[C@@H]2CCCN2C1=O (stereo partly drawn) [3BP-4251] | FAP-expressing human WI-38 fibroblasts (Homo sapiens, UniProt Q12884) | < 10 nM
